system: PATU-8988T; assay: MTT assay panel; type: cell-based; conditions: Homo sapiens; PATU-8988T cells, 72 hours
quantity: pIC50
pIC50 is defined as minus the log10 of a concentration measured in mol/L.

Query :: Report pIC50 for "NC(=O)/C(=C/n1cnc(-c2cc(C(F)(F)F)cc(C(F)(F)F)c2)n1)c1cncnc1" tested on PATU-8988T.
Result :: 5.14

----------
test system: L3.6pl; experiment: MTT assay panel; format: cell-based; settings: Homo sapiens; L3.6pl cells, 72 hours
quantity: IC50 (nM)
Numbers only; they are read as nM.

Query :: Which IC50 is listed for "NC(=O)/C(=C/n1cnc(-c2cc(C(F)(F)F)cc(C(F)(F)F)c2)n1)c1cncnc1" ?
Result :: 470

FYI, the data here is from patent US11945794B2.
